Reference source: PubChem BioAssay AID1159580

- experiment-description: chemical genetic growth profiling, strain panel (AID 1159580);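 further: tested at 20 µM; growth read once vehicle control cultures reached saturation at 30 °C; 1 = growth at the plate median or of vehicle wells; lower values mean less growth of the strain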
- condition: S. cerevisiae deletion strains, growth OD, locus YNL209W, strain ssb2, hits give low values
Among all 5,500 compounds or so, about 2,000 (36%) were called active. Another 18% or so got no clear call; they are omitted. This is one part of the list.
# normalized growth values compiled below
Provide a numeric answer; units are not to be included.

Recorded results for 5 compounds are shown here.
compound: O=C(CCCN1CCC(O)(c2ccc(Cl)cc2)CC1)c1ccc(F)cc1
normalized growth: 0.933

compound: OC1(c2ccc(Cl)c(C(F)(F)F)c2)CCN(CCCC(c2ccc(F)cc2)c2ccc(F)cc2)CC1
normalized growth: 0.0684

compound: O=c1c(O)cc([C@H]2Oc3cc(O)cc(O)c3C[C@H]2O)cc2c([C@H]3Oc4cc(O)cc(O)c4C[C@H]3O)cc(O)c(O)c12
normalized growth: 0.996

compound: Oc1ccc([C@H]2Oc3cc(O)cc(O)c3C[C@H]2O)cc1
normalized growth: 1.01

compound: Cc1cc(N)c2ccccc2[n+]1CCCCCCCCCC[n+]1c(C)cc(N)c2ccccc21
normalized growth: 0.0673

Task: Record request: normalized growth value, item NC[C@H]1O[C@H](OC2[C@@H](N)C[C@@H](N)[C@H](O[C@H]3O[C@H](CO)[C@@H](O)[C@H](N)[C@H]3O)[C@H]2O)[C@H](O)[C@@H](O)[C@@H]1O (stereo partly specified)
Result: 0.996

----------
- experiment-description: chemical genetic growth profiling, strain panel (AID 1159580)
- condition: S. cerevisiae deletion strains, growth OD, locus YML120C, strain ndi1, hits give low values
Among all 5,500 compounds or so, about 2,000 (36%) were called active. Another 18% or so got no clear call; they are omitted. The list shows a part of the results.
readout-name: normalized growth
Provide a numeric answer; units are not to be included.

Recorded results for 3 compounds are shown here.
compound: COC(=O)[C@H]1[C@H]2C[C@H]3c4[nH]c5cc(OC)ccc5c4CCN3C[C@H]2C[C@@H](OC(=O)c2cc(OC)c(OC)c(OC)c2)[C@@H]1OC
readout-name: normalized growth
val: 1.01

compound: NC(=O)c1ccc([N+](=O)[O-])cc1Cl
readout-name: normalized growth
val: 1

compound: COc1cc2c(cc1OC)-c1c(oc3cc(O)cc(O)c3c1=O)CO2
readout-name: normalized growth
val: 1.01

Task: Record request: normalized growth value, item Oc1ccc([C@H]2Oc3cc(O)cc(O)c3C[C@H]2O)cc1
Result: 1

Task: Record request: normalized growth value, item C[C@@H]1CCC2[C@](C)(CO)[C@@H](O)CC[C@]2(C)[C@@]12CC[C@@](CO)(CCO)O2 (stereo partly specified)
Result: 0.992

Task: Record request: normalized growth value, item CC(C)(C)NCC(O)COc1cccc2c1C[C@H](O)[C@H](O)C2 (stereo partly specified)
Result: 1.01

----------
- experiment-description: chemical genetic growth profiling, strain panel (AID 1159580)
- condition: S. cerevisiae deletion strains, growth OD, locus YBR021W, strain FUR4, hits give low values
Hit rate of the full screen: of about 5,500 compounds, about 2,000 (36%) were called active. Another 18% or so got no clear call; they are omitted. Some of the results follow.
We label by threshold. Values of normalized growth strictly beneath 1 are 1. Values of 1 and up are 0.

Record excerpt, results attached:
molecule: CO[C@@H]1[C@@H](OC(N)=O)[C@@H](O)[C@H](Oc2ccc3c(O)c(NC(=O)c4ccc(O)c(CC=C(C)C)c4)c(=O)oc3c2C)OC1(C)C
assigned-label: 0
--
molecule: CCC(=O)OCC(=O)[C@@]1(OC(=O)CC)[C@@H](C)CC2C3CCC4=CC(=O)C=C[C@]4(C)C3(F)[C@@H](O)C[C@@]21C (some centres not stated)
assigned-label: 1
--
molecule: C[C@]12CCC(=O)C=C1CCc1ccc(O)cc12
assigned-label: 0
--
molecule: CC1=CC(=O)C2C(C)(C)CCC[C@]2(C)[C@@]1(O)CCc1ccoc1 (some centres not stated)
assigned-label: 0
--
molecule: CC(=O)O[C@@H]1CC2C(C)(CC[C@H](O)C2(C)C)C2CC[C@]3(C)C(=CC(=O)O[C@H]3c3ccoc3)C21C (some centres not stated)
assigned-label: 1
--
molecule: O=C(O)c1cc(O)ccc1O
assigned-label: 1

Task: Does this molecule meet the criterion normalized growth < 1? CCC(=O)OCC(=O)C1(OC(=O)CC)C(C)CC2C3CCC4=CC(=O)C=CC4(C)C3(Cl)C(O)CC21C (configuration not stated)
Result: 0

----------
- experiment-description: chemical genetic growth profiling, strain panel (AID 1159580)
- condition: S. cerevisiae deletion strains, growth OD, locus YLR221C, strain rsa3, hits give low values
Screen size: about 5,500 compounds; about 2,000 (36%) were called active. Roughly 18% stayed inconclusive and do not appear here. Some of the results follow.
We label by threshold. Values of normalized growth strictly beneath 1 are true. Values of 1 and up are false.

Record excerpt, results attached:
compound: CCC(=O)NCC[C@@H]1CCc2ccc3c(c21)CCO3
assigned-label: true
--
compound: CC1(C)S[C@@H]2C(N3C(=O)[C@@H](c4ccccc4)NC3(C)C)C(=O)N2[C@H]1C(=O)O (stereo not given in full)
assigned-label: false

Task: Does this compound meet the criterion normalized growth < 1? CC1(C)[C@@H]2CC[C@@]1(C)C(=O)C2
Result: false

----------
- experiment-description: chemical genetic growth profiling, strain panel (AID 1159580);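 further: tested at 20 µM; growth read once vehicle control cultures reached saturation at 30 °C; 1 = growth at the plate median or of vehicle wells; lower values mean less growth of the strain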
- condition: S. cerevisiae deletion strains, growth OD, locus YKL101W, strain HSL1, hits give low values
The campaign covered roughly 5,500 compounds. About 2,000 (36%) were called active. Inconclusive results (about 18%) are left out. Some of the results follow.
# normalized growth values compiled below
Provide a numeric answer; units are not to be included.

Recorded results for 2 compounds are shown here.
compound: O=C(NNc1cc(C(F)(F)F)cc(C(F)(F)F)c1)c1cnc2n(c1=O)CCS2
readout-name: normalized growth
val: 1.01

compound: CC1(C)C=Cc2cc(/C(N)=N\OC(=O)Nc3cccc(C(F)(F)F)c3)ccc2O1
readout-name: normalized growth
val: 0.934

Continue with the next compound.
Task: Record request: normalized growth value, item CC(C)/C(=N/OC(=O)c1ccc([N+](=O)[O-])cc1)c1ccccc1
Result: 0.242

----------
- experiment-description: chemical genetic growth profiling, strain panel (AID 1159580);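 further: tested at 20 µM; growth read once vehicle control cultures reached saturation at 30 °C; 1 = growth at the plate median or of vehicle wells; lower values mean less growth of the strain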
- condition: S. cerevisiae deletion strains, growth OD, locus YMR263W, strain SAP30, hits give low values
Screen size: about 5,500 compounds; about 2,000 (36%) were called active. Inconclusive results (about 18%) are left out. Some of the results follow.
readout-name: normalized growth
Provide a numeric answer; units are not to be included.

Recorded results for 10 compounds are shown here.
compound: CC1(C)S[C@@H]2C(N3C(=O)[C@@H](c4ccccc4)NC3(C)C)C(=O)N2[C@H]1C(=O)O (some centres undefined)
readout-name: normalized growth
val: 1
--
compound: CC(=O)O[C@@H]1c2c(ccc3ccc(=O)oc23)OC(C)(C)[C@@H]1OC(=O)CC(C)C
readout-name: normalized growth
val: 0.996
--
compound: COc1ccccc1N1CCN(CCCCN2C(=O)c3ccccc3C2=O)CC1
readout-name: normalized growth
val: 1
--
compound: CC(C)(C)NCC(O)COc1cccc2c1C[C@H](O)[C@H](O)C2 (some centres undefined)
readout-name: normalized growth
val: 1.02
--
compound: NC(N)=NC(N)=Nc1cccc(Cl)c1
readout-name: normalized growth
val: 0.999
--
compound: COC(=O)NC(=S)Nc1ccccc1NC(=S)NC(=O)OC
readout-name: normalized growth
val: 1.02
--
compound: NC(=O)c1ccc(OCC(O)CN2CC=C(c3ccc(F)cc3)CC2)cc1 (centres undefined)
readout-name: normalized growth
val: 0.98
--
compound: COc1ccccc1N1CCN(CCN(C(=O)C2CCCCC2)c2ccccn2)CC1
readout-name: normalized growth
val: 0.997
--
compound: Cc1ccc(SC(=O)c2cccnc2Oc2ccccc2)cc1
readout-name: normalized growth
val: 0.984
--
compound: COc1ccccc1NC(=S)NCCC(=O)O
readout-name: normalized growth
val: 0.989

Task: Record request: normalized growth value, item CC1(C)S[C@@H]2[C@H](NC(=O)[C@@H](N)c3ccc(O)cc3)C(=O)N2[C@H]1C(=O)O
Result: 1

----------
- experiment-description: chemical genetic growth profiling, strain panel (AID 1159580);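 further: tested at 20 µM; growth read once vehicle control cultures reached saturation at 30 °C; 1 = growth at the plate median or of vehicle wells; lower values mean less growth of the strain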
- condition: S. cerevisiae deletion strains, growth OD, locus YJL157C, strain FAR1, hits give low values
Out of some 5,500 compounds screened, about 2,000 (36%) were called active. About 18% were inconclusive and are not listed. The list shows a part of the results.
We label by threshold. Values of normalized growth strictly beneath 0.8 are true (1). Values of 0.8 and up are false (0).

Record excerpt, results attached:
molecule: CCn1nc(C)cc1C(=O)Sc1cccc(Br)c1
assigned-label: true (1)

molecule: CO/N=C1/CC(C)(C)Cc2c(-c3ccn(C(=O)Nc4cccc(Cl)c4)n3)sc(SC)c21
assigned-label: false (0)

molecule: O=C(OCc1ccccc1Br)c1cc([N+](=O)[O-])cc([N+](=O)[O-])c1
assigned-label: false (0)

molecule: Clc1cccc(Cl)c1C1CC(c2ccccc2)=Nc2ccccc2S1 (centres undefined)
assigned-label: false (0)

molecule: O=C(O/N=C1/CCCc2[nH]c3ccccc3c21)C1CCCCC1
assigned-label: false (0)

molecule: O=C1Nc2ccccc2/C1=C\c1c[nH]c2ccccc12
assigned-label: true (1)

Task: Does this molecule meet the criterion normalized growth < 0.8? N#C/C(N=Cc1cc(Cl)cc(Cl)c1O)=C(\C#N)N=Cc1cc(Cl)cc(Cl)c1O
Result: true (1)
